Each entry below carries its reported inhibition at 7.5 min, 1 μM.
test system: CYP2C9; assay: in vitro; details: Sprague-Dawley, rat, microsomes, pH 7.4, % inhibition of CYP2C9 activity
Your answer is read as %, so omit the unit and give the number.

# annotated cases, reported inhibition at 7.5 min, 1 μM shown
O=C(O)c1ccc(O)c(O)c1 [protocatechuic acid]	20.3
O=c1cc(-c2ccc(O)cc2)oc2cc(O)c([C@@H]3O[C@H](CO)[C@@H](O)[C@H](O)[C@H]3O)c(O)c12 [isovitexin]	35.6
CCCCCCCCCCCC1=C(O)C(=O)C=C(O)C1=O [Embelin]	24.7
COc1ccc(-c2coc3cc(O)ccc3c2=O)cc1 [Formononetin]	23.3
COc1ccc(-c2oc3cc(O)cc(O)c3c(=O)c2O)cc1O [Tamarixetin]	42

Return reported inhibition at 7.5 min, 1 μM; argument: O=c1c(-c2ccc(O)cc2)coc2c([C@@H]3O[C@H](CO)[C@@H](O)[C@H](O)[C@H]3O)c(O)ccc12 [Puerarin]
38.1

inhibition at 7.5 min, 1 μM lookup needed for O=c1cc(-c2ccc(O)c(O)c2)oc2cc(O)cc(O)c12 [luteolin] , thanks.
20.1

Fill in the blank: the reported inhibition at 7.5 min, 1 μM of O=c1c(O)c(-c2ccc(O)cc2O)oc2cc(O)cc(O)c12 [Morin] is ____.
14.3

Which inhibition at 7.5 min, 1 μM reading was recorded for the compound C=C[C@H]1[C@H](O[C@@H]2O[C@H](CO)[C@@H](O)[C@H](O)[C@H]2O)OC=C2C(=O)OCC[C@]21O [Swertiamarin] ?
16.3

Requested read-out: inhibition at 7.5 min, 1 μM. Entry: O=c1c(-c2ccc(O)cc2)coc2cc(O)ccc12 [Daidzein]
1.35

Measured values drawn from patent US20130184227A1 for this set.
